Target: 3',5'-cyclic-AMP phosphodiesterase 4D (Homo sapiens); also: assay procedure not described here
Sequence (Q08499 whole entry): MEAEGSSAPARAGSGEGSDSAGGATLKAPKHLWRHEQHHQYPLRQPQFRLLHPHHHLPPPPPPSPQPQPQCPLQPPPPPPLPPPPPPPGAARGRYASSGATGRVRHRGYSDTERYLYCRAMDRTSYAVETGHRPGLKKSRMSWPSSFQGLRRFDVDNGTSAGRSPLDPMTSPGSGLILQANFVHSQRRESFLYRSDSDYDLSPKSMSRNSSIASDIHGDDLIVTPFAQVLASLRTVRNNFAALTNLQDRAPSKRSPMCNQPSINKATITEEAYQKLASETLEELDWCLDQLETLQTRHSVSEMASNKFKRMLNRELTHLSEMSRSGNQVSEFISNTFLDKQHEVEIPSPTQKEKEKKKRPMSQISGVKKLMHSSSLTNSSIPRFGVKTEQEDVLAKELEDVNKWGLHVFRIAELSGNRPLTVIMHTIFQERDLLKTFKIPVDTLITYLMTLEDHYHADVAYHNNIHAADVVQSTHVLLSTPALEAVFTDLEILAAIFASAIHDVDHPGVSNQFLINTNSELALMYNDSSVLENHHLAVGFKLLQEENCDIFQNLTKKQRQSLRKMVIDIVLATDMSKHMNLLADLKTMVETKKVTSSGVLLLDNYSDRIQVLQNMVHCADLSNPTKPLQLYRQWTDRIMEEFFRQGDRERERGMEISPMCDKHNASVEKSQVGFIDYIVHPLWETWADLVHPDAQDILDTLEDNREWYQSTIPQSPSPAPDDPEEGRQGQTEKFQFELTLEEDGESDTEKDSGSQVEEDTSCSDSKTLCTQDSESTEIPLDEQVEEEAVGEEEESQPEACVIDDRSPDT
Format: functional
Each record here notes measured AC50.

molecule: CCCCCCCCCCCCCCCCCCCCCC(=O)Nc1ccn([C@@H]2O[C@H](CO)[C@@H](O)[C@@H]2O)c(=O)n1
endpointLabel: AC50
reportedResult: > 30 µM

molecule: Nc1ncn([C@H]2C[C@H](O)[C@@H](CO)O2)c(=O)n1
endpointLabel: AC50
reportedResult: > 30 µM

molecule: CO[C@H]1/C=C/O[C@@]2(C)Oc3c(C)c(O)c4c(O)c(c(/C=N/N5CCN(C)CC5)c(O)c4c3C2=O)NC(=O)/C(C)=C\C=C\[C@H](C)[C@H](O)[C@@H](C)[C@@H](O)[C@@H](C)[C@H](OC(C)=O)[C@@H]1C
endpointLabel: AC50
reportedResult: 13 µM

molecule: C[C@]12CC[C@@H]3c4ccc(O)cc4C[C@@H](CCCCCCCCC[S+]([O-])CCCC(F)(F)C(F)(F)F)[C@H]3[C@@H]1CC[C@@H]2O (some centres not stated)
endpointLabel: AC50
reportedResult: > 30 µM

molecule: CC(C)COCC(CN(Cc1ccccc1)c1ccccc1)N1CCCC1 (configuration not stated)
endpointLabel: AC50
reportedResult: > 30 µM

molecule: COc1ccc(CC2c3cc(OC)c(OC)cc3CC[N+]2(C)CCC(=O)OCCCCCOC(=O)CC[N+]2(C)CCc3cc(OC)c(OC)cc3C2Cc2ccc(OC)c(OC)c2)cc1OC (configuration not stated)
endpointLabel: AC50
reportedResult: > 30 µM

molecule: CN1C(C(=O)Nc2ccccn2)=C(O)c2ccccc2S1(=O)=O
endpointLabel: AC50
reportedResult: > 30 µM

molecule: Oc1ccc2c(c1)[C@@]13CCCC[C@@]1(O)[C@@H](C2)N(CC1CCC1)CC3
endpointLabel: AC50
reportedResult: > 30 µM

Shifting focus to the molecule that follows.
Under 3',5'-cyclic-AMP phosphodiesterase 4D (Homo sapiens): AC50 value of CCC(C)C1(CC)C(=O)NC(=O)NC1=O (configuration not stated) ?
> 30 µM

* * *

Hi! I'm sharing some AC50 results obtained with Cannabinoid receptor 1 (Homo sapiens, UniProt P21554).
Sequence (P21554 whole entry): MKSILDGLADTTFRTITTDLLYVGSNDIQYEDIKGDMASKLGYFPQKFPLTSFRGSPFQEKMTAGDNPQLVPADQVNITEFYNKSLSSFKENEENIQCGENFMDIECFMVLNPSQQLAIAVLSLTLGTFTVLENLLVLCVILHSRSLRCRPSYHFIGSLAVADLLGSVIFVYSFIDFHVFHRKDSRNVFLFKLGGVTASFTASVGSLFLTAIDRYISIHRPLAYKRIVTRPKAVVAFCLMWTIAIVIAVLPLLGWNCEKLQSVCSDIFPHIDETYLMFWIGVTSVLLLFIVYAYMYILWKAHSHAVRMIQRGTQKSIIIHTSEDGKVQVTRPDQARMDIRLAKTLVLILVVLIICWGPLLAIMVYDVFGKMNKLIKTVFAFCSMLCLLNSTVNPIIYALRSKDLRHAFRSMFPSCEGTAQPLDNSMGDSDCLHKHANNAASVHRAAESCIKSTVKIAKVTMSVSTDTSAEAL

molecule: CC(C)Cc1ccc(C(C)C(=O)O)cc1 (configuration not stated) [IBUPROFEN]
AC50: > 10 µM

// query AC50 value for entry Cc1noc(NS(=O)(=O)c2ccc(N)cc2)c1C [SULFISOXAZOLE]
> 10 µM

Next up: O=C1C(CC[S+]([O-])c2ccccc2)C(=O)N(c2ccccc2)N1c1ccccc1 (configuration not stated) [SULFINPYRAZONE]
> 10 µM

Now consider CN1C(C(=O)Nc2ccccn2)=C(O)c2ccccc2S1(=O)=O [PIROXICAM] and answer again.
> 10 µM

Try CCCCC(=O)O[C@]1(C(=O)CO)[C@@H](C)C[C@H]2[C@@H]3CCC4=CC(=O)C=C[C@]4(C)[C@@]3(F)[C@@H](O)C[C@@]21C [BETAMETHASONE VALERATE] next.
> 10 µM

Moving on to the next molecule: CC(C(=O)O)c1ccc(-c2ccccc2)c(F)c1 (configuration not stated) [FLURBIPROFEN]
> 10 µM

* * *

The following molecules have recorded AC50 on Cannabinoid receptor 1 (Homo sapiens).

As a guide, the following entries are already answered.
molecule: CN1CCN(C2=Nc3ccccc3Oc3ccc(Cl)cc32)CC1
reportedResult: > 10 µM
//
molecule: CC(C)N(CCC(C(N)=O)(c1ccccc1)c1ccccn1)C(C)C (stereo not given) [DISOPYRAMIDE]
reportedResult: > 10 µM
//
molecule: CCOC(=O)c1cncn1[C@H](C)c1ccccc1 [ETOMIDATE]
reportedResult: > 10 µM
//
molecule: CCCN(CCC)C(=O)Cc1c(-c2ccc(Cl)cc2)nc2ccc(Cl)cn12
reportedResult: > 30 µM
//
molecule: COc1cc2nc(N3CCN(C(=O)C4CCCO4)CC3)nc(N)c2cc1OC (stereo not given)
reportedResult: > 10 µM

Given the entry [H]/N=C(/N)N/C(=N/[H])NCCc1ccccc1 , what AC50 was observed with Cannabinoid receptor 1 (Homo sapiens)?
> 30 µM

# iterate: O=C1CN=C(c2ccccn2)c2cc(Br)ccc2N1
> 10 µM

Next molecule: CC1OC2(CS1)CN1CCC2CC1 (stereo not given)
> 10 µM

What would you report for Clc1ccc(C(Cn2ccnc2)OCc2ccsc2Cl)c(Cl)c1 (stereo not given) ?
> 30 µM

And the next one, CC(C)[C@H](N)C(=O)OCC(CO)OCn1cnc2c(=O)nc(N)[nH]c21 (stereo not given in full) ?
> 30 µM
